From: ChEMBL document CHEMBL1926537

Could you please report measured pIC50 for the items listed next?
# test-name: Inhibition of wheat germ topoisomerase 1-mediated relaxation of supercoiled DNA after 45 mins
# Parameters: species or system Triticum aestivum
Value format note: pIC50 is -log10 of concentration (mol/L); just state the number.

Prompt: Specify reported pIC50 for the molecule shown: CC(=O)OC[C@]1(O)CO[C@H](Oc2c(-c3ccc(O)cc3)oc3cc(O[C@@H]4O[C@@H](C)[C@H](O)[C@@H](O)[C@H]4O)cc(O)c3c2=O)[C@H]1O
Completion: 3.92

Prompt: Specify reported pIC50 for the molecule shown: C[C@@H]1O[C@@H](Oc2cc(O)c3c(=O)c(O[C@@H]4OC[C@H](O)[C@H](O)[C@H]4O)c(-c4ccc(O)cc4)oc3c2)[C@H](O)[C@H](O)[C@H]1O
Completion: 3.62

Prompt: Specify reported pIC50 for the molecule shown: C[C@@H]1O[C@@H](Oc2cc(O)c3c(=O)c(O[C@@H]4O[C@H](CO)[C@@H](O)[C@H](O)[C@H]4O)c(-c4ccc(O)cc4)oc3c2)[C@H](O)[C@H](O)[C@H]1O
Completion: 3.46

Prompt: Specify reported pIC50 for the molecule shown: C[C@@H]1O[C@@H](Oc2cc(O)c3c(=O)c(O[C@@H]4O[C@H](CO)[C@H](O)[C@H](O)[C@H]4O[C@@H]4O[C@@H](C)[C@H](O)[C@@H](O)[C@H]4O)c(-c4ccc(O)cc4)oc3c2)[C@H](O)[C@H](O)[C@H]1O
Completion: 3.82

Prompt: Specify reported pIC50 for the molecule shown: C[C@@H]1O[C@@H](Oc2cc(O)c3c(=O)c(O[C@@H]4O[C@H](CO)[C@H](O)[C@H](O)[C@H]4O)c(-c4ccc(O)cc4)oc3c2)[C@H](O)[C@H](O)[C@H]1O
Completion: 3.70
